Target: SMBS on rat lung membranes (Rattus norvegicus, UniProt A0A8I6A822)
Construct: from tissue; host or cells: rat lung membranes (SD male rats)
Sequence (A0A8I6A822 27-587): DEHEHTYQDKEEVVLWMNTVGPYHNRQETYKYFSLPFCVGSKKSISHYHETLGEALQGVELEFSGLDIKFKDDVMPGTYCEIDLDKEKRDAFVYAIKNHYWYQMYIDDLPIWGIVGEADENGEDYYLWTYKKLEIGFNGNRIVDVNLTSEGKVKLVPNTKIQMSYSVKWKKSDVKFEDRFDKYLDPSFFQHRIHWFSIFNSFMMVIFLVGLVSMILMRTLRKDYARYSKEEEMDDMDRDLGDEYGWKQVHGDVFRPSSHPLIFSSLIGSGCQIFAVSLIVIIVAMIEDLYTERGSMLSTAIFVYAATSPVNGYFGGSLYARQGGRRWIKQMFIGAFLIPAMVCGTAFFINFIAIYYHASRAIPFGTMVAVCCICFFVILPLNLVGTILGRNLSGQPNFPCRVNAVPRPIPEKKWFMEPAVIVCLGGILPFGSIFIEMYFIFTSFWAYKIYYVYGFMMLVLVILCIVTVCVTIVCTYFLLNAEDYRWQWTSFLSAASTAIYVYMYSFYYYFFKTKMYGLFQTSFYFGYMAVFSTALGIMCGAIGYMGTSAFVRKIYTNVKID
Assay: Receptor binding of the compound in rat lung membranes ([125I]-iodo-cyanopindolol ligand binding assay; Experiments 1 and 4)
Conditions: ratio of inhibiting the specific binding of [125I]-iodo-cyanopindolol; test concentration 30 μM; rat lung membranes; read-out: Binding Activity (30 μM)
Description: Evaluation Test on Receptor Binding of the Compound in Rat Lung Membranes: This experiment was carried out according to the method disclosed in Sugasawa et al., (Sugasawa, T. et al., J. Biol. Chem., 272, 21244-21252(1997)). Preparation of Rat Lung Membranes […]
We begin with a simple list: items and their reported inhibition at 30 µM.
Result Type: inhibition at 30 µM (%)

>>> value_reported("COc1ccc(C(=O)/N=c2\\scc(-c3ccc(OC(F)(F)F)cc3)n2CCCNCC(=O)O)c(OC)c1")
32
>>> value_reported("CCNC(=O)NCCCn1c(-c2ccc(F)cc2)cs/c1=N\\C(=O)c1ccc(Cl)cc1OC")
80
>>> value_reported("CCOC(=O)CCNCCCn1c(-c2ccc(OC(F)(F)F)cc2)cs/c1=N\\C(=O)c1ccc(OC)cc1OC")
99
>>> value_reported("COc1ccc(C(=O)/N=c2\\scc(C(=O)Nc3ccc(Cl)cc3)n2CCCNC(C)=O)c(OC)c1")
42
>>> value_reported("COc1ccc(C(=O)/N=c2\\scc(-c3ccc(OC(F)(F)F)cc3)n2CCCNCC(=O)NCC(=O)O)c(OC)c1")
73
>>> value_reported("COc1ccc(C(=O)/N=c2\\scc(-c3ccc(OC(F)(F)F)cc3)n2CCCNC(=O)N(C)C)c(OC)c1")
102
>>> value_reported("COc1ccc(C(=O)/N=c2\\scc(-c3ccc(OC(F)(F)F)cc3)n2CCCNCC(N)=O)c(OC)c1")
74

----------
Target: SMBS on rat lung membranes (Rattus norvegicus, UniProt A0A8I6A822)
Construct: from tissue; host or cells: rat lung membranes (SD male rats)
Assay: Receptor binding of the compound in rat lung membranes ([125I]-iodo-cyanopindolol ligand binding assay; Experiments 1 and 4)
Settings: Table 42; concentration tested 30 μM; rat lung membranes; Experiment 4; read-out: Binding Activity (30 μM)
Classification field: 1 = inhibition at 30 µM at or over 80%; -1 = inhibition at 30 µM under 80%.

>>> discrete_label("O=C(NCCCn1c(-c2ccc(N3CCOCC3)cc2)cs/c1=N\\c1ccc(F)cc1)NCc1ccccc1")
1
>>> discrete_label("CCOC(=O)CNCCCn1c(-c2ccc(F)cc2)csc1=Nc1ccc(Cl)cc1OC")
1
>>> discrete_label("CCNC(=O)NCCn1c(-c2ccc(N3CCOCC3)cc2)cs/c1=N\\c1ccc(F)cc1")
1
>>> discrete_label("N=C(NCCCn1c(-c2ccc(N3CCOCC3)cc2)cs/c1=N\\c1ccc(F)cc1)N1CCCCC1")
1
>>> discrete_label("CCNC(=O)NCCCn1c(-c2ccc(N3CCOCC3)cc2)cs/c1=N\\c1ccc(OC)cn1")
1
>>> discrete_label("CN(C)C(=O)NCCCn1c(-c2ccc(N3CCOCC3)cc2)csc1=Nc1ccc(F)cc1")
1
>>> discrete_label("CCNC(=O)NCCCn1c(-c2ccc(N3CCOCC3)cc2)cs/c1=N\\c1ncccn1")
-1
>>> discrete_label("CCOC(=O)CCNCCCn1c(-c2ccc(F)cc2)csc1=Nc1ccc(Cl)cc1OC")
1
>>> discrete_label("O=C(NCCCn1c(-c2ccc(N3CCOCC3)cc2)cs/c1=N\\c1ccc(F)cc1)Nc1ccc(F)cc1")
-1
>>> discrete_label("CCNC(=O)NCCCCCn1c(-c2ccc(N3CCOCC3)cc2)cs/c1=N\\c1ccc(F)cc1")
-1
>>> discrete_label("CNC(=O)NCCn1c(-c2ccc(N3CCOCC3)cc2)csc1=Nc1ccc(F)cc1")
1
>>> discrete_label("CCCCCCNC(=O)NCCCn1c(-c2ccc(N3CCOCC3)cc2)cs/c1=N\\c1ccc(F)cc1")
-1

----------
Target: SMBS on rat lung membranes (Rattus norvegicus, UniProt A0A8I6A822)
Construct: from tissue; host or cells: rat lung membranes (SD male rats)
Test: Receptor binding of the compound in rat lung membranes ([125I]-iodo-cyanopindolol ligand binding assay; Experiments 1 and 4)
Settings: Table 42; concentration tested 30 μM; rat lung membranes; Experiment 4; read-out: Binding Activity (30 μM)
Classification field: True = inhibition at 30 µM at or over 70%; False = inhibition at 30 µM under 70%.

>>> discrete_label("CCS(=O)(=O)NCCCn1c(-c2ccc(N3CCOCC3)cc2)cs/c1=N\\c1ccc(F)cc1")
"False"
>>> discrete_label("O=C(NCCCn1c(-c2ccc(N3CCOCC3)cc2)cs/c1=N\\c1ccc(F)cc1)NC1CCCCC1")
"False"
>>> discrete_label("CCOC(=O)NCCCn1c(-c2ccc(N3CCOCC3)cc2)cs/c1=N\\c1ccc(F)cc1")
"True"
>>> discrete_label("O=C(NCCCn1c(-c2ccc(N3CCOCC3)cc2)csc1=Nc1ccc(F)cc1)c1ccccc1")
"True"
>>> discrete_label("CCOC(=O)CC(=O)NCCCn1c(-c2ccc(N3CCOCC3)cc2)cs/c1=N\\c1ccc(F)cc1")
"False"
>>> discrete_label("CN(C)CC(=O)NCCCn1c(-c2ccc(N3CCOCC3)cc2)cs/c1=N\\c1ccc(F)cc1")
"True"
>>> discrete_label("CCCCNC(=O)NCCCn1c(-c2ccc(N3CCOCC3)cc2)csc1=Nc1ccc(F)cc1")
"True"

----------
Molecular target: SMBS on rat lung membranes (Rattus norvegicus, UniProt A0A8I6A822)
Construct: from tissue; host or cells: rat lung membranes (SD male rats)
Test: Receptor binding of the compound in rat lung membranes ([125I]-iodo-cyanopindolol ligand binding assay; Experiments 1 and 4)
Details: Table 43; concentration tested 30 μM; rat lung membranes; Experiment 4; read-out: Binding Activity (30 μM)
We begin with a simple list: items and their reported inhibition at 30 µM.
Result Type: inhibition at 30 µM (%)

>>> value_reported("CCNC(=S)NCCCn1c(-c2ccc(N3CCOCC3)cc2)cs/c1=N\\c1ccc(F)cc1 [Example 312]")
112
>>> value_reported("O=C(CNCCCn1c(-c2ccc(N3CCOCC3)cc2)cs/c1=N\\c1ccc(F)cc1)NCCO [Example 344]")
101
>>> value_reported("COCCNCCCn1c(-c2ccc(F)cc2)cs/c1=N\\Cc1ccc(Cl)cc1OC [Example 411]")
118
>>> value_reported("CCNC(=O)NCCCn1c(-c2ccc(N3CCOCC3)cc2)cs/c1=N\\c1nccs1 [Example 299]")
93

----------
Biological target: SMBS on rat lung membranes (Rattus norvegicus, UniProt A0A8I6A822)
Construct: from tissue; host or cells: rat lung membranes (SD male rats)
Assay: Receptor binding of the compound in rat lung membranes ([125I]-iodo-cyanopindolol ligand binding assay; Experiments 1 and 4)
Conditions: Table 43; concentration tested 30 μM; rat lung membranes; Experiment 4; read-out: Binding Activity (30 μM)
Classification field: Yes = inhibition at 30 µM at or over 90%; No = inhibition at 30 µM under 90%.

>>> discrete_label("COCC(=O)NCCCn1c(-c2ccc(OC(F)(F)F)cc2)cs/c1=N\\Cc1ccc(OC)cc1OC")
"No"
>>> discrete_label("CCNC(=O)NCCCn1c(COCc2ccccc2)cs/c1=N\\c1ccc(OC(F)(F)F)cc1")
"No"
>>> discrete_label("COCCNCCCn1c(-c2ccc(F)cc2)cs/c1=N\\c1ccc(Cl)cc1OC")
"Yes"
>>> discrete_label("CCN(CC)C(=O)CNCCCn1c(-c2ccc(N3CCOCC3)cc2)cs/c1=N\\c1ccc(F)cc1")
"Yes"
>>> discrete_label("O=C(CN1CCCC1)NCCCn1c(-c2ccc(N3CCOCC3)cc2)csc1=Nc1ccc(F)cc1")
"No"

----------
Molecular target: SMBS on rat lung membranes (Rattus norvegicus)
Construct: from tissue; host or cells: rat lung membranes (SD male rats)
Test: Receptor binding of the compound in rat lung membranes ([125I]-iodo-cyanopindolol ligand binding assay; Experiments 1 and 4)
Conditions: Table 44; concentration tested 30 μM; rat lung membranes; Experiment 4; read-out: Binding Activity (30 μM)
We begin with a simple list: items and their reported inhibition at 30 µM.
Result Type: inhibition at 30 µM (%)

>>> value_reported("O=C(CNCCCn1c(-c2ccc(OC(F)(F)F)cc2)cs/c1=N\\Cc1ccc(Cl)cc1)NCCO")
113
>>> value_reported("CC(=O)NCCCn1c(-c2ccc(OC(F)(F)F)cc2)cs/c1=N\\C(=O)c1ccccn1")
71
>>> value_reported("CCS(=O)(=O)NCCCn1c(-c2ccc(OC(F)(F)F)cc2)cs/c1=N\\Cc1ccc(Cl)cc1")
89
>>> value_reported("CCOC(=O)NCCCn1c(-c2ccc(OC(F)(F)F)cc2)cs/c1=N\\Cc1ccc(Cl)cc1")
100
>>> value_reported("CCCCCC(=O)NCCCn1c(-c2ccc(OC(F)(F)F)cc2)cs/c1=N\\C(=O)c1ccc(OC)cc1OC")
77
>>> value_reported("CC(=O)NCCCn1c(-c2ccc(OC(F)(F)F)cc2)cs/c1=N\\C(=O)CC1CCCC1")
87
>>> value_reported("COc1ccc(C(=O)/N=c2\\scc(C(=O)Nc3ccc(Cl)cc3)n2CCCN)c(OC)c1")
95
>>> value_reported("CCCC(=O)NCCCn1c(-c2ccc(OC(F)(F)F)cc2)cs/c1=N\\C(=O)c1ccc(OC)cc1OC")
89
